All figures here come from ChEMBL document CHEMBL3867433.

assay: Antifungal activity against Penicillium chrysogenum assessed as inhibition of spore germination at 25 ug/well after 48 hrs by agar well diffusion method; type: functional
# inhibition zone (IZ) listing for each entry below
Field: numeric (mm). Do not append units.

See these solved cases before continuing.
Nc1nnc(CS(=O)(=O)/C=C\c2ccc(Cl)cc2)s1 = 35
Nc1nnc(CS(=O)(=O)c2n[nH]cc2-c2ccc(Cl)cc2)s1 = 33
Nc1nnc(CS(=O)(=O)c2n[nH]cc2-c2ccccc2)s1 = 32
CC(=O)N1CCN(c2ccc(OCC3COC(Cn4ccnc4)(c4ccc(Cl)cc4Cl)O3)cc2)CC1 (configuration not stated) = 36
Nc1nnc(CS(=O)(=O)/C=C\c2ccccc2)s1 = 34
Nc1nnc(CS(=O)(=O)/C=C\c2ccccc2)o1 = 13

Now consider a different molecule.
Challenge: inhibition zone (IZ) for "Cc1ccc(-c2c[nH]cc2S(=O)(=O)Cc2nnc(N)s2)cc1" ?
Response given: 24

* * *

system: Staphylococcus aureus; experiment: Antibacterial activity against Staphylococcus aureus at 50 ug/well after 24 hrs by agar well diffusion method; type: functional; details: read-out: DIZ
Assay metric: zone of inhibition at 50 µg/disc (mm)
Field: numeric (mm). Do not append units.

Cc1ccc(/C=C\S(=O)(=O)Cc2nnc(N)s2)cc1 = 21

Challenge: zone of inhibition at 50 µg/disc for "Nc1nnc(CS(=O)(=O)/C=C\c2ccccc2)o1" ?
Response given: 15

Challenge: zone of inhibition at 50 µg/disc for "Nc1nnc(CS(=O)(=O)c2c[nH]cc2-c2ccc(Cl)cc2)s1" ?
Response given: 21

* * *

system: Pseudomonas aeruginosa; assay: Antibacterial activity against Pseudomonas aeruginosa at 12.5 ug/well after 24 hrs by agar well diffusion method; assay type: functional; details: read-out: DIZ
Decision: zone of inhibition at 12.5 µg/disc >= 20 mm yields Criterion met, all other cases yield Criterion not met.

Examples from the recorded data:
Nc1nnc(CS(=O)(=O)c2n[nH]cc2-c2ccccc2)o1 = Criterion not met
Nc1nnc(CS(=O)(=O)/C=C\c2ccccc2)o1 = Criterion not met
Nc1nnc(CS(=O)(=O)c2n[nH]cc2-c2ccc(Cl)cc2)o1 = Criterion not met
Nc1nnc(CS(=O)(=O)/C=C\c2ccc(Cl)cc2)s1 = Criterion met
Nc1nnc(CS(=O)(=O)c2n[nH]cc2-c2ccc(Cl)cc2)s1 = Criterion met

Challenge: Kindly determine if zone of inhibition at 12.5 µg/disc recorded for "Cc1ccc(/C=C\S(=O)(=O)Cc2nnc(N)o2)cc1" is above or exactly 20 mm.
Response given: Criterion not met

Challenge: Kindly determine if zone of inhibition at 12.5 µg/disc recorded for "Nc1nnc(CS(=O)(=O)/C=C\c2ccc(Cl)cc2)o1" is above or exactly 20 mm.
Response given: Criterion not met

Challenge: Kindly determine if zone of inhibition at 12.5 µg/disc recorded for "Nc1nnc(CS(=O)(=O)c2n[nH]cc2-c2ccccc2)s1" is above or exactly 20 mm.
Response given: Criterion met

Challenge: Kindly determine if zone of inhibition at 12.5 µg/disc recorded for "Cc1ccc(-c2c[nH]cc2S(=O)(=O)Cc2nnc(N)s2)cc1" is above or exactly 20 mm.
Response given: Criterion not met

Challenge: Kindly determine if zone of inhibition at 12.5 µg/disc recorded for "O=C(N[C@H](CO)[C@H](O)c1ccc([N+](=O)[O-])cc1)C(Cl)Cl" is above or exactly 20 mm.
Response given: Criterion met

Challenge: Kindly determine if zone of inhibition at 12.5 µg/disc recorded for "Nc1nnc(CS(=O)(=O)/C=C\c2ccccc2)s1" is above or exactly 20 mm.
Response given: Criterion met

Challenge: Kindly determine if zone of inhibition at 12.5 µg/disc recorded for "Nc1nnc(CS(=O)(=O)c2c[nH]cc2-c2ccccc2)s1" is above or exactly 20 mm.
Response given: Criterion not met

Challenge: Kindly determine if zone of inhibition at 12.5 µg/disc recorded for "Cc1ccc(/C=C\S(=O)(=O)Cc2nnc(N)s2)cc1" is above or exactly 20 mm.
Response given: Criterion met

* * *

# MIC listing for each entry below
experiment: Antifungal activity against Penicillium chrysogenum assessed as inhibition of spore germination after 48 hrs by broth dilution method; type: functional
Field: numeric (µg/mL). Do not append units.

CC(=O)N1CCN(c2ccc(OCC3COC(Cn4ccnc4)(c4ccc(Cl)cc4Cl)O3)cc2)CC1 (centres undefined) [KETOCONAZOLE] = 12.5
Nc1nnc(CS(=O)(=O)c2c[nH]cc2-c2ccc(Cl)cc2)s1 = 50
Nc1nnc(CS(=O)(=O)c2n[nH]cc2-c2ccc(Cl)cc2)s1 = 12.5

Now consider a different compound.
Challenge: MIC for "Nc1nnc(CS(=O)(=O)/C=C\c2ccc(Cl)cc2)s1" ?
Response given: 12.5

* * *

assay: Antifungal activity against Penicillium chrysogenum assessed as inhibition of spore germination at 100 ug/well after 48 hrs by agar well diffusion method; assay type: functional
Decision: inhibition zone (IZ) >= 30 mm yields yes, all other cases yield no.

Cc1ccc(C2CNN=C2S(=O)(=O)Cc2nnc(N)s2)cc1 (stereo unspecified) = no

Challenge: Kindly determine if inhibition zone (IZ) recorded for "Cc1ccc(-c2c[nH]cc2S(=O)(=O)Cc2nnc(N)s2)cc1" is above or exactly 30 mm.
Response given: no

Challenge: Kindly determine if inhibition zone (IZ) recorded for "Nc1nnc(CS(=O)(=O)/C=C\c2ccccc2)o1" is above or exactly 30 mm.
Response given: no

Challenge: Kindly determine if inhibition zone (IZ) recorded for "Cc1ccc(-c2c[nH]nc2S(=O)(=O)Cc2nnc(N)s2)cc1" is above or exactly 30 mm.
Response given: yes

Challenge: Kindly determine if inhibition zone (IZ) recorded for "Nc1nnc(CS(=O)(=O)c2n[nH]cc2-c2ccccc2)s1" is above or exactly 30 mm.
Response given: yes

Challenge: Kindly determine if inhibition zone (IZ) recorded for "Nc1nnc(CS(=O)(=O)c2c[nH]cc2-c2ccc(Cl)cc2)s1" is above or exactly 30 mm.
Response given: yes

Challenge: Kindly determine if inhibition zone (IZ) recorded for "Nc1nnc(CS(=O)(=O)c2c[nH]cc2-c2ccccc2)s1" is above or exactly 30 mm.
Response given: yes

Challenge: Kindly determine if inhibition zone (IZ) recorded for Nc1nnc(CS(=O)(=O)C2=NNCC2c2ccc(Cl)cc2)s1 (stereo unspecified) is above or exactly 30 mm.
Response given: no

Challenge: Kindly determine if inhibition zone (IZ) recorded for "Cc1ccc(-c2c[nH]cc2S(=O)(=O)Cc2nnc(N)o2)cc1" is above or exactly 30 mm.
Response given: no

Challenge: Kindly determine if inhibition zone (IZ) recorded for CC(=O)N1CCN(c2ccc(OCC3COC(Cn4ccnc4)(c4ccc(Cl)cc4Cl)O3)cc2)CC1 (stereo unspecified) is above or exactly 30 mm.
Response given: yes

Challenge: Kindly determine if inhibition zone (IZ) recorded for "Cc1ccc(/C=C\S(=O)(=O)Cc2nnc(N)o2)cc1" is above or exactly 30 mm.
Response given: no

* * *

# inhibition zone (IZ) listing for each entry below
assay: Antifungal activity against Penicillium chrysogenum assessed as inhibition of spore germination at 25 ug/well after 48 hrs by agar well diffusion method; type: functional
Field: numeric (mm). Do not append units.

See these solved cases before continuing.
Nc1nnc(CS(=O)(=O)c2n[nH]cc2-c2ccccc2)o1 = 12
Nc1nnc(CS(=O)(=O)c2c[nH]cc2-c2ccccc2)s1 = 27
Nc1nnc(CS(=O)(=O)c2n[nH]cc2-c2ccc(Cl)cc2)o1 = 13
Cc1ccc(-c2c[nH]nc2S(=O)(=O)Cc2nnc(N)s2)cc1 = 30
Nc1nnc(CS(=O)(=O)c2c[nH]cc2-c2ccc(Cl)cc2)s1 = 32
Nc1nnc(CS(=O)(=O)c2c[nH]cc2-c2ccc(Cl)cc2)o1 = 14

Challenge: inhibition zone (IZ) for "Cc1ccc(/C=C\S(=O)(=O)Cc2nnc(N)s2)cc1" ?
Response given: 27

Challenge: inhibition zone (IZ) for "Cc1ccc(-c2c[nH]cc2S(=O)(=O)Cc2nnc(N)o2)cc1" ?
Response given: 10

Challenge: inhibition zone (IZ) for "Cc1ccc(/C=C\S(=O)(=O)Cc2nnc(N)o2)cc1" ?
Response given: 12

Challenge: inhibition zone (IZ) for "Nc1nnc(CS(=O)(=O)/C=C\c2ccc(Cl)cc2)o1" ?
Response given: 16

Challenge: inhibition zone (IZ) for "Nc1nnc(CS(=O)(=O)c2c[nH]cc2-c2ccccc2)o1" ?
Response given: 12

* * *

# inhibition zone (IZ) listing for each entry below
assay: Antifungal activity against Penicillium chrysogenum assessed as inhibition of spore germination at 100 ug/well after 48 hrs by agar well diffusion method; format: functional
Field: numeric (mm). Do not append units.

Nc1nnc(CS(=O)(=O)/C=C\c2ccc(Cl)cc2)s1 = 41
Nc1nnc(CS(=O)(=O)/C=C\c2ccc(Cl)cc2)o1 = 20
Nc1nnc(CS(=O)(=O)c2c[nH]cc2-c2ccccc2)o1 = 16
Nc1nnc(CS(=O)(=O)c2c[nH]cc2-c2ccc(Cl)cc2)o1 = 18

Now consider a different molecule.
Challenge: inhibition zone (IZ) for "Cc1ccc(/C=C\S(=O)(=O)Cc2nnc(N)s2)cc1" ?
Response given: 31
